System: Mycobacterium tuberculosis variant bovis
Test: Antimycobacterial activity against Mycobacterium bovis BCG ATCC 35734 assessed as inhibition of bacterial growth incubated for 5 days in 7H9 standard media by broth dilution method
Type: functional
Conditions: BCG ATCC 35734, 120 h, time 5 day
Each entry below carries its recorded MIC90.

| cpd smiles | test system | MIC90 |
| --- | --- | --- |
| c1ccc2sc(CNC3CCCCCC3)cc2c1 | Mycobacterium tuberculosis variant bovis | 5 µM |
| O=C(NC1CCCCCCC1)c1cc2ccc(OCc3ccccc3)cc2[nH]1 | Mycobacterium tuberculosis variant bovis | 0.07 µM |
| O=C(NC1CCCCCCC1)c1cc2ccccc2[nH]1 | Mycobacterium tuberculosis variant bovis | 0.52 µM |
| O=C(NC1CCCCCCC1)c1cc2ccc(F)cc2[nH]1 | Mycobacterium tuberculosis variant bovis | 0.18 µM |
| Brc1ccc2[nH]c(CNC3CCCCCCC3)cc2c1 | Mycobacterium tuberculosis variant bovis | 0.74 µM |
| c1ccc2[se]c(CNC3CCCCCCC3)cc2c1 | Mycobacterium tuberculosis variant bovis | 2.1 µM |
| O=C(NC1CCCCCCC1)c1cc2ccc(Cl)cc2[nH]1 | Mycobacterium tuberculosis variant bovis | 0.11 µM |
| O=C(NC1CCCCCC1)c1cc2ccccc2[se]1 | Mycobacterium tuberculosis variant bovis | 2.7 µM |
| c1ccc2sc(CNC3CCCCC3)cc2c1 | Mycobacterium tuberculosis variant bovis | > 45 µM |
| O=C(NC1CCCCCCC1)c1cc2cc(OCc3ccccc3)ccc2[nH]1 | Mycobacterium tuberculosis variant bovis | 0.17 µM |
| c1ccc2[nH]c(CNC3CCCCCCC3)cc2c1 | Mycobacterium tuberculosis variant bovis | 0.75 µM |
| O=C(NC1CCCCCCC1)c1cc2cc([N+](=O)[O-])ccc2[nH]1 | Mycobacterium tuberculosis variant bovis | 0.41 µM |
| COc1ccc2[nH]c(CNC3CCCCCCC3)cc2c1 | Mycobacterium tuberculosis variant bovis | 1.5 µM |
| FC(F)(F)c1ccc2cc(CNC3CCCCCCC3)sc2c1 | Mycobacterium tuberculosis variant bovis | 0.78 µM |
| O=C(NC1CCCCCCC1)c1cc2cc(Cl)ccc2[nH]1 | Mycobacterium tuberculosis variant bovis | 0.8 µM |
| COc1ccc2cc(C(=O)NC3CCCCCCC3)[nH]c2c1 | Mycobacterium tuberculosis variant bovis | 1.1 µM |
| O=[N+]([O-])c1ccc2[nH]c(CNC3CCCCCCC3)cc2c1 | Mycobacterium tuberculosis variant bovis | 0.69 µM |
| O=C(NC1CCCCC1)c1cc2ccccc2[se]1 | Mycobacterium tuberculosis variant bovis | > 50 µM |
| Fc1ccc2cc(CNC3CCCCCCC3)[nH]c2c1 | Mycobacterium tuberculosis variant bovis | 0.43 µM |
| O=C(NC1CCCCCC1)c1cc2ccc(C(F)(F)F)cc2[nH]1 | Mycobacterium tuberculosis variant bovis | 0.21 µM |
| O=C(NC1CCCCCCC1)c1cc2ccc(Br)cc2[se]1 | Mycobacterium tuberculosis variant bovis | 0.78 µM |
| Brc1ccc2cc(CNC3CCCCCCC3)sc2c1 | Mycobacterium tuberculosis variant bovis | 2.2 µM |
| O=C(NC1CCCCCCC1)c1cc2ccccc2[se]1 | Mycobacterium tuberculosis variant bovis | 0.7 µM |
| c1ccc2sc(CNC3CCCCCCC3)cc2c1 | Mycobacterium tuberculosis variant bovis | 3.4 µM |
| Clc1ccc2cc(CNC3CCCCCCC3)[nH]c2c1 | Mycobacterium tuberculosis variant bovis | 0.1 µM |
| O=C(NC1CCCCCCC1)c1cc2ccc(O)cc2[nH]1 | Mycobacterium tuberculosis variant bovis | 11 µM |
| COc1ccc2[nH]c(C(=O)NC3CCCCCCC3)cc2c1 | Mycobacterium tuberculosis variant bovis | 0.65 µM |
| FC(F)(F)c1ccc2cc(CNC3CCCCCCC3)[se]c2c1 | Mycobacterium tuberculosis variant bovis | 2 µM |
| FC(F)(F)c1ccc2cc(CNC3CCCCCCC3)[nH]c2c1 | Mycobacterium tuberculosis variant bovis | 0.08 µM |
| c1ccc2[se]c(CNC34CC5CC(CC(C5)C3)C4)cc2c1 | Mycobacterium tuberculosis variant bovis | 2.7 µM |
| Brc1ccc2cc(CNC3CCCCCCC3)[nH]c2c1 | Mycobacterium tuberculosis variant bovis | 0.16 µM |
| O=C(NC1CCCCCCC1)c1cc2cc(O)ccc2[nH]1 | Mycobacterium tuberculosis variant bovis | 48 µM |
| c1ccc2sc(CNC34CC5CC(CC(C5)C3)C4)cc2c1 | Mycobacterium tuberculosis variant bovis | 3.6 µM |
| NC(=O)c1cc2ccccc2s1 | Mycobacterium tuberculosis variant bovis | > 50 µM |
| O=C(NC1CCCCCCC1)c1cc2ccc(C(F)(F)F)cc2[nH]1 | Mycobacterium tuberculosis variant bovis | 0.04 µM |
| O=C(NC1CCCCC1)c1cc2ccccc2s1 | Mycobacterium tuberculosis variant bovis | > 50 µM |
| O=C(NC1CCCCCCC1)c1cc2cc(Br)ccc2[nH]1 | Mycobacterium tuberculosis variant bovis | 1.1 µM |
| O=C(NC1CCCCC1)c1cc2ccc(C(F)(F)F)cc2[nH]1 | Mycobacterium tuberculosis variant bovis | 1.6 µM |
| COc1ccc2cc(CNC3CCCCCCC3)[nH]c2c1 | Mycobacterium tuberculosis variant bovis | 1.2 µM |
| O=C(NC12CC3CC(CC(C3)C1)C2)c1cc2ccccc2[se]1 | Mycobacterium tuberculosis variant bovis | 1 µM |
| O=C(NC12CC3CC(CC(C3)C1)C2)c1cc2ccccc2s1 | Mycobacterium tuberculosis variant bovis | 0.9 µM |
| Fc1ccc2[nH]c(CNC3CCCCCCC3)cc2c1 | Mycobacterium tuberculosis variant bovis | 0.33 µM |
| Brc1ccc2cc(CNC3CCCCCCC3)[se]c2c1 | Mycobacterium tuberculosis variant bovis | 0.54 µM |
| O=C(NC1CCCCCCC1)c1cc2ccc(Br)cc2s1 | Mycobacterium tuberculosis variant bovis | 0.8 µM |
| FC(F)(F)c1ccc2cc(CNC3CCCCC3)[nH]c2c1 | Mycobacterium tuberculosis variant bovis | 1.1 µM |
